Cited source for all entries: PubChem BioAssay (NCI)

- PROCEDURE_SUMMARY: NCI Yeast Anticancer Drug Screen. Data for the mlh1 strain (AID 171);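 further: 0% = growth of vehicle-treated control cultures of the same strain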
- CONDITION_DESCRIPTION: S. cerevisiae mlh1 strain growth inhibition; at 3.7 µM; hits give high values
About 79,000 compounds went through this panel and 15% of them were active in at least one assay; those are over-represented in the sample as a whole. Active and inactive are the calls of the source. No stated cut-off is given here; in the data, active means growth inhibition above about 70%; inactive means the rest.
The reader will find reported growth inhibition values listed item by item below.

CC(C)OC(=O)NNc1cccc(Cl)c1 = 4% (inactive)
O=C(C(Cl)=C(N1CCCCC1)N1CCCCC1)C(Cl)Cl = -4% (inactive)
CC1=COC2=C(C)C(=O)C(=O)c3c(C)ccc1c32 = 27% (inactive)
Cc1ccc(S(=O)(=O)NC(=O)C2C(=O)CC3(CCCCC3)CC2=O)cc1 = -11% (inactive)
Cc1cccc(C)c1NC(=O)CCC(=O)C(C)C(=O)c1ccc(O)cc1 (stereo unspecified) = -3% (inactive)

Let us examine a further case.
Sure, the documented growth inhibition for N#[N+]c1c([O-])c2ccccc2c2ccccc12 is -1% (inactive)
